B1: LOC100129726 (parent)
chain: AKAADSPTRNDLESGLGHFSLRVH

variants of: B1; test: protein stability index of a GFP-peptide fusion (GPS, HEK-293T) (PSI 1-6); higher = more stable; details: c terminus: a fixed tail appended;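 also: lentivirally expressed fusions sorted by FACS into six bins by GFP to DsRed ratio, PSI derived from sequencing read proportions per bin multiplied by bin number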
Quick rule: protein stability index of at least 3 means met, below that means not met.

Record excerpt, results attached:
query.sequence	class.name
AKAARSPTRNDLESGLGHFSLRVH [D5R]	not met
AKAADSPTRNDLESGLGHFSWRVH [L21W]	met
AKAADCPTRNDLESGLGHFSLRVH [S6C]	not met
AKAADSPTRNDLKSGLGHFSLRVH [E13K]	not met
AKAADSPTRNDLESGLGHASLRVH [F19A]	met
AKAADSTTRNDLESGLGHFSLRVH [P7T]	met

**Q:** Test whether the variant AKAADSPTRNDLESGLGHFVLRVH [S20V] records protein stability index of 3 or higher.
**A:** not met

**Q:** Test whether the variant AKAADSPTRNDLESGLGEFSLRVH [H18E] records protein stability index of 3 or higher.
**A:** met

**Q:** Test whether the variant AKAADSPTRNDLESGLGHFSLPVH [R22P] records protein stability index of 3 or higher.
**A:** met

**Q:** Test whether the variant AKAACSPTRNDLESGLGHFSLRVH [D5C] records protein stability index of 3 or higher.
**A:** not met

**Q:** Test whether the variant AKFADSPTRNDLESGLGHFSLRVH [A3F] records protein stability index of 3 or higher.
**A:** not met

**Q:** Test whether the variant AKAADSPTRNDLESGLGHFSLRVD [H24D] records protein stability index of 3 or higher.
**A:** met
